# applied_conditions: 298.15 K; 101.33 kPa; Liquid; Cone and plate viscometry
readout_label: viscosity (mPa·s)

| molecule | recorded_result |
| --- | --- |
| CCCCCCn1cc[n+](C)c1C.O=[N+]([O-])c1cn[n-]c1 [1-hexyl-2,3-dimethylimidazolium 4-nitropyrazolide] | 1110 |
| CCOCc1n(CC)cc[n+]1C.O=S(=O)([N-]S(=O)(=O)C(F)(F)F)C(F)(F)F | 66 |
| CCCCCCCCCCCCCC[P+](CCCCCC)(CCCCCC)CCCCCC.O=S(=O)([N-]S(=O)(=O)C(F)(F)F)C(F)(F)F | 318 |
| CC(=O)[O-].CCCCCCCCCCCCCC[P+](CCCCCC)(CCCCCC)CCCCCC [trihexyl(tetradecyl)phosphonium acetate] | 406 |
| CCCCCCCCCCCCCC[P+](CCCCCC)(CCCCCC)CCCCCC.N#Cc1nc[n-]c1C#N [trihexyl(tetradecyl)phosphonium 4,5-dicyanoimidazolide] | 535 |
| CCCCCCC[P+](CC)(CC)CC.O=[N+]([O-])c1cn[n-]c1 [triethylheptylphosphonium 4-nitropyrazolide] | 223 |
| CCCCCCCC[P+](CC)(CC)CC.O=S(=O)([N-]S(=O)(=O)C(F)(F)F)C(F)(F)F [triethyloctylphosphonium bis(trifluoromethylsulfonyl)imide] | 111 |

----------
# applied_conditions: 298.15 K; 101.33 kPa; Liquid; Vibrating tube method
Numbers after ± are expanded uncertainties.

| compound | mass density |
| --- | --- |
| CCCCCCCCSC(N(C)C)=[N+](C)C.O=S(=O)([N-]S(=O)(=O)C(F)(F)F)C(F)(F)F | 1296.7 ± 9.2 kg/m3 |
| CCCCCCCCCCCCCC[P+](CCCCCC)(CCCCCC)CCCCCC.Cc1ncc([N+](=O)[O-])[n-]1 [trihexyl(tetradecyl)phosphonium 2-methyl-5-nitroimidazolide] | 938.7 ± 4.8 kg/m3 |
| CC(=O)[O-].CCCCCCCCCCCCCC[P+](CCCCCC)(CCCCCC)CCCCCC [trihexyl(tetradecyl)phosphonium acetate] | 885.8 ± 4.4 kg/m3 |

----------
# applied_conditions: 333.15 K; 101.33 kPa; Liquid; Vibrating tube method
readout_label: mass density (kg/m3)

| compound | recorded_result |
| --- | --- |
| CCCCCC[n+]1ccn(C)c1.O=S(=O)([N-]S(=O)(=O)C(F)(F)F)C(F)(F)F | 1341.3 |
| CCCC[P+](CC)(CC)CC.O=[N+]([O-])c1cn[n-]c1 [butyltriethylphosphonium 4-nitropyrazolide] | 1057.3 |
| CCCCCCC[P+](CC)(CC)CC.O=[N+]([O-])c1cn[n-]c1 [triethylheptylphosphonium 4-nitropyrazolide] | 1017.3 |
| CC[P+](CC)(CC)COCCOC.O=[N+]([O-])c1cn[n-]c1 | 1115.6 |
| CCC=Cn1cc[n+](C)c1C.O=[N+]([O-])c1cn[n-]c1 [1-but-1-enyl-2,3-dimethylimidazolium 4-nitropyrazolide] | 1157.9 |
| CCCCCCCCSC(N(C)C)=[N+](C)C.O=S(=O)([N-]S(=O)(=O)C(F)(F)F)C(F)(F)F | 1267.1 |
| CCCCCCCC[P+](CC)(CC)CC.O=[N+]([O-])c1c[n-]cn1 [triethyloctylphosphonium 4-nitroimidazolide] | 1008.5 |
| CCCC[P+](CC)(CC)CC.Cc1ncc([N+](=O)[O-])[n-]1 [butyltriethylphosphonium 2-methyl-5-nitroimidazolide] | 1044.9 |
| CCC[n+]1ccn(C)c1C.O=[N+]([O-])c1cn[n-]c1 [1,2-dimethyl-3-propylimidazolium 4-nitropyrazolide] | 1159.3 |
| CCCCCCCC[P+](CC)(CC)CC.O=S(=O)([N-]S(=O)(=O)C(F)(F)F)C(F)(F)F [triethyloctylphosphonium bis(trifluoromethylsulfonyl)imide] | 1216.3 |
| CCCCCCCCCC[P+](CC)(CC)CC.O=[N+]([O-])c1cn[n-]c1 [decyltriethylphosphonium 4-nitropyrazolide] | 990.4 |
| CCCCCCn1cc[n+](C)c1.O=[N+]([O-])c1cn[n-]c1 [1-hexyl-3-methylimidazolium 4-nitropyrazolide] | 1100.6 |
| CC(=O)[O-].CCCCCCn1cc[n+](C)c1 [3-hexyl-1-methylimidazolium acetate] | 995.5 |
| CCCCCCCC[P+](CC)(CC)CC.Cc1ncc([N+](=O)[O-])[n-]1 [triethyloctylphosphonium 2-methyl-5-nitroimidazolide] | 1008.4 |

----------
Measured viscosity accompanies every entry in the list below.
# applied_conditions: 283.15 K; 101.33 kPa; Liquid; Cone and plate viscometry
Numbers after ± are expanded uncertainties.

| compound | viscosity |
| --- | --- |
| CCCCCCCCCCCCCC[P+](CCCCCC)(CCCCCC)CCCCCC.O=[N+]([O-])c1c[n-]cn1 [trihexyl(tetradecyl)phosphonium 4-nitroimidazolide] | 2220 ± 210 mPa·s |
| CCCCCCCCC[P+](CC)(CC)CC.O=[N+]([O-])c1cn[n-]c1 [triethylnonylphosphonium 4-nitropyrazolide] | 888 ± 76 mPa·s |
| CC(=O)[O-].CCCCCCn1cc[n+](C)c1 [3-hexyl-1-methylimidazolium acetate] | 6460 ± 740 mPa·s |
| CCCC[P+](CC)(CC)CC.Cc1ncc([N+](=O)[O-])[n-]1 [butyltriethylphosphonium 2-methyl-5-nitroimidazolide] | 1350 ± 120 mPa·s |
| CCC=Cn1cc[n+](C)c1C.O=[N+]([O-])c1cn[n-]c1 [1-but-1-enyl-2,3-dimethylimidazolium 4-nitropyrazolide] | 3260 ± 340 mPa·s |
| CCCCCC[n+]1ccn(C)c1.O=S(=O)([N-]S(=O)(=O)C(F)(F)F)C(F)(F)F | 150 ± 10 mPa·s |
| CCCCCCn1cc[n+](C)c1.O=[N+]([O-])c1cn[n-]c1 [1-hexyl-3-methylimidazolium 4-nitropyrazolide] | 1810 ± 170 mPa·s |
| CC(=O)[O-].CCCCCCCCCCCCCC[P+](CCCCCC)(CCCCCC)CCCCCC [trihexyl(tetradecyl)phosphonium acetate] | 1200 ± 110 mPa·s |
| CCCCCCCC[P+](CC)(CC)CC.O=[N+]([O-])c1cn[n-]c1 [triethyloctylphosphonium 4-nitropyrazolide] | 716 ± 60 mPa·s |
| CCCCCCSC(N(C)C)=[N+](C)C.O=S(=O)([N-]S(=O)(=O)C(F)(F)F)C(F)(F)F | 193 ± 14 mPa·s |
| CCCCCCCC[P+](CC)(CC)CC.O=S(=O)([N-]S(=O)(=O)C(F)(F)F)C(F)(F)F [triethyloctylphosphonium bis(trifluoromethylsulfonyl)imide] | 268 ± 20 mPa·s |
| CCOCc1n(CC)cc[n+]1C.O=S(=O)([N-]S(=O)(=O)C(F)(F)F)C(F)(F)F | 149 ± 10 mPa·s |
| CCCC[P+](CC)(CC)CC.O=[N+]([O-])c1cn[n-]c1 [butyltriethylphosphonium 4-nitropyrazolide] | 551 ± 44 mPa·s |
| CCC[n+]1ccn(C)c1C.O=[N+]([O-])c1cn[n-]c1 [1,2-dimethyl-3-propylimidazolium 4-nitropyrazolide] | 4500 ± 500 mPa·s |

----------
# applied_conditions: 308.15 K; 101.33 kPa; Liquid; Vibrating tube method
Each entry below carries its reported mass density.

| molecule | mass density / kg/m3 |
| --- | --- |
| CCCCCCCC[P+](CC)(CC)CC.O=[N+]([O-])c1cn[n-]c1 [triethyloctylphosphonium 4-nitropyrazolide] | 1024.9 |
| CCCCCCCCSC(N(C)C)=[N+](C)C.O=S(=O)([N-]S(=O)(=O)C(F)(F)F)C(F)(F)F | 1288.2 |
| CCCCCCCCCCCCCC[P+](CCCCCC)(CCCCCC)CCCCCC.Cc1ncc([N+](=O)[O-])[n-]1 [trihexyl(tetradecyl)phosphonium 2-methyl-5-nitroimidazolide] | 932.8 |
| CC[P+](CC)(CC)COCCOC.O=[N+]([O-])c1cn[n-]c1 | 1132.2 |
| CCCCCCC[P+](CC)(CC)CC.O=[N+]([O-])c1cn[n-]c1 [triethylheptylphosphonium 4-nitropyrazolide] | 1031.8 |
| CC[P+](CC)(CC)COCCOC.O=S(=O)([N-]S(=O)(=O)C(F)(F)F)C(F)(F)F | 1351.2 |
| CCCCCCCCCCCCCC[P+](CCCCCC)(CCCCCC)CCCCCC.Clc1nc[n-]c1Cl [trihexyl(tetradecyl)phosphonium 4,5-dichloroimidazolide] | 958.3 |
| CCC[n+]1ccn(C)c1C.O=[N+]([O-])c1cn[n-]c1 [1,2-dimethyl-3-propylimidazolium 4-nitropyrazolide] | 1175.5 |
| CCCCCCn1cc[n+](C)c1.O=[N+]([O-])c1cn[n-]c1 [1-hexyl-3-methylimidazolium 4-nitropyrazolide] | 1116.6 |
| CCCCCCCCCC[P+](CC)(CC)CC.O=[N+]([O-])c1cn[n-]c1 [decyltriethylphosphonium 4-nitropyrazolide] | 1004.9 |
| CCCCCCCCC[P+](CC)(CC)CC.O=[N+]([O-])c1cn[n-]c1 [triethylnonylphosphonium 4-nitropyrazolide] | 1015.8 |
| CC(=O)[O-].CCCCCCCCCCCCCC[P+](CCCCCC)(CCCCCC)CCCCCC [trihexyl(tetradecyl)phosphonium acetate] | 879.8 |
| CCC=Cn1cc[n+](C)c1C.O=[N+]([O-])c1cn[n-]c1 [1-but-1-enyl-2,3-dimethylimidazolium 4-nitropyrazolide] | 1174.1 |
| CCCCCCCC[P+](CC)(CC)CC.O=[N+]([O-])c1c[n-]cn1 [triethyloctylphosphonium 4-nitroimidazolide] | 1022.9 |
| CCCCCCCCCCCCCC[P+](CCCCCC)(CCCCCC)CCCCCC.N#Cc1nc[n-]c1C#N [trihexyl(tetradecyl)phosphonium 4,5-dicyanoimidazolide] | 913.9 |
